target: TmCsp (cold shock protein) (Thermotoga maritima, UniProt O54310 1-66); assay: Trp fluorescence quenching; 323 K; EMSA: 50 mM NaH2PO4 pH 6.5, 20 mM NaCl, 0.2 mM EDTA, room temperature 1 h, 20% gel in 1xTBE at 4 C; NMR: 50 mM sodium phosphate pH 6.5, 20 mM NaCl, 0.2 mM EDTA; conditions: protein: recombinant; tags: none stated; chain copies: 2; label: none (5'-fluorescein in EMSA); single strand
Sequence (O54310 whole entry): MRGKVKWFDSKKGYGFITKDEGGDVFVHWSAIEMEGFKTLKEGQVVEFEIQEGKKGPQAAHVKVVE
Task for the reader: assign each of the following binders its reported pKd.
Numbers only, as −log10 of the molar value.

Each binder below has a recorded value; state its pKd.
1. UUUUUUU (ssRNA) [(rU)7]
2. TTTTTTT (ssDNA) [(dT)7]

result:
1: 5.82; 2: 6.36

Values compiled from paper PMC7704496.
